Measured values drawn from PubChem BioAssay for this set.

# Measurement description: probe aLefty2 binding to arrayed compounds – biochemical, biotinylated probe, 635/667 nm fluorescence, primary screen (AID 1094);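 note: score merges spot fluorescence near 667 nm with spot signal-to-noise ratio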
# Condition notes: small-molecule microarray, higher = more signal
The label depends only on composite z-score: 1 if it is at least 0.01, -1 if it is smaller.

CN(C)C(=O)[C@]1(Cc2ccccc2N=[N+]=[N-])N=C(c2ccc(OCCCO)cc2)O[C@@H]1c1ccccc1CN=[N+]=[N-] = 1
COCCOC(=O)N1C(=O)[C@@]2(c3cc(C#CCC(C(=O)OC)C(=O)OC)ccc31)[C@H](c1ccc(OCCO)cc1)N1[C@H](c3ccccc3)[C@H](c3ccccc3)OC(=O)[C@H]1[C@@H]2C(N)=O = 1
COC(=O)[C@@]1(Cc2ccccc2)[C@H]2c3cc(C(=O)N4CCCC4)n(CCO)c3C[C@H]2CN1C(=O)c1ccccc1 = 1

// query Dear colleague, could you confirm whether COC(=O)[C@]1(Cc2ccccc2N=[N+]=[N-])N=C(c2ccc(OCCCO)cc2)O[C@@H]1c1ccccc1 has composite z-score at or above 0.01?
// result 1

// query Further, for CC(C)N1CC=CC23O[C@@H]4C=CCOC(=O)[C@@H]4[C@H]2C(=O)N(CCCCCCO)[C@@H]3C1=O (some centres not stated) ?
// result -1

// query And the next one, COCC(=C=CC[C@@H](O)c1ccccc1OCCO)C[C@@H](O)c1ccccn1 ?
// result -1

// query // next record CC(C)CCC[C@@H](C)[C@H]1CC[C@@]2(C)C3=C(CC[C@]12C)[C@@]1(C)CC[C@H](OC(=O)C(C)(C)C)C(C)(C)C1CC3 (some centres not stated)
// result -1

* * *

# Measurement description: small molecules captured by biotinylated probe aFGF2 – biochemical, small-molecule microarray, fluorescence 635/667, stem cell growth factor project, primary screen (AID 1067);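 note: measures binding of biotinylated aFGF2 protein to printed compounds on slides; z-score merges feature fluorescence and signal-to-noise across triplicate slides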
# Condition notes: higher = more signal
For each record, write down the corresponding composite z-score.
Numbers only.

COC(=O)[C@]1(Cc2ccccc2CN=[N+]=[N-])N=C(c2ccc(OCCCO)cc2)O[C@@H]1c1ccccc1CN=[N+]=[N-] = -0.087

Field: composite z-score. Fill in for each record below.
1. O=C(O)[C@@]1(Cc2ccccc2)COC(c2ccc(OCCCO)cc2)=N1
2. COCCCNC(=O)[C@@]1(Cc2ccccc2)COC(c2ccc(OCCCO)cc2)=N1
3. COCCOC(=O)N1C(=O)[C@@]2(c3cc(C#CCC(C(=O)OC)C(=O)OC)ccc31)[C@H](c1ccc(OCCO)cc1)N1[C@H](c3ccccc3)[C@H](c3ccccc3)OC(=O)[C@H]1[C@@H]2C(N)=O
4. CCC[C@@H]1C[C@@]1(CCC)[C@@H](NC(=O)c1cccs1)c1ccc(Cl)cc1

// result
1. -0.0886
2. -0.0745
3. -0.116
4. -0.0861

Please give composite z-score for each item listed below.
1. COCCOC(=O)N1C(=O)[C@@]2(c3cc(C#Cc4ccc(OC)cc4)ccc31)[C@H](C(=O)N1CCc3cc(OC)c(OC)cc3C1)[C@H]1C(=O)O[C@H](c3ccccc3)[C@H](c3ccccc3)N1[C@@H]2c1ccc(OCCO)cc1
2. CN1C(=O)C2C=CC(C(O)COCc3ccccc3)N(Nc3ccccc3)C2C1=O (configuration not stated)

// result
1. -0.0567
2. 0.308
